Cited source for all entries: PubChem BioAssay (NCI)

- Tested on: DU-145 prostate
- assayProtocol: NCI-60 one-dose screen, 48 h (100 = growth as untreated, 0 = no growth, -100 = all killed)
- reportedConditions: 10 µM unless noted
The panel holds about 83,000 compounds, 20% with a hit somewhere; the sample as a whole holds those more often.

# compound, targetEntity, growth, %
data = [
    ("CS(=O)(=O)c1nsc(N)n1", "DU-145 prostate", 109),
    ("CCC/C(=N/NC(N)=O)c1ccco1", "DU-145 prostate", 109),
    ("CCCCCCC(C)CC1=C(O)c2ccccc2C(=O)C1=O (stereo not drawn)", "DU-145 prostate", 45.2),
]
